# TGT: Thyrotropin receptor (Homo sapiens) (UniProt P16473)
# Sequence (P16473 whole entry, looked up): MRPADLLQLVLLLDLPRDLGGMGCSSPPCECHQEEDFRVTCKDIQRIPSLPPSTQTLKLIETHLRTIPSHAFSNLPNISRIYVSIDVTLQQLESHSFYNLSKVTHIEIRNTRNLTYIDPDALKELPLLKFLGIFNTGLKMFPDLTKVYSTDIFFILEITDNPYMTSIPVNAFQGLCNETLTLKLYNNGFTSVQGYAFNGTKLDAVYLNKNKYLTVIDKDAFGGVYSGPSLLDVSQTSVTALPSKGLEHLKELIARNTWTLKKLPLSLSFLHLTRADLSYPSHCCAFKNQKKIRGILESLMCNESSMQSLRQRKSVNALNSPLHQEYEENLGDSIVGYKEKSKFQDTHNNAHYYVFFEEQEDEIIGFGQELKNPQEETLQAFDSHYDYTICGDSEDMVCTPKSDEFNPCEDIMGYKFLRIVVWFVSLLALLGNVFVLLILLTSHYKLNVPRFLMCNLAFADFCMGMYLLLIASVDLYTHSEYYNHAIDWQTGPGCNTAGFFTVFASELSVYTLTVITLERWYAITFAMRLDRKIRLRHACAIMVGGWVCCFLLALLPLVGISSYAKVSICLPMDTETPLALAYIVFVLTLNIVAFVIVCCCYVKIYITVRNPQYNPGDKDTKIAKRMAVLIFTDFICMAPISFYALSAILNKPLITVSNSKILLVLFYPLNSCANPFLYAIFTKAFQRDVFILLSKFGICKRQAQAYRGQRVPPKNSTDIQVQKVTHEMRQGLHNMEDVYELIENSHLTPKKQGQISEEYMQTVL
# METHOD_DESCRIPTION: qHTS assay to identify small molecule antagonists of the thyroid stimulating hormone receptor (TSHR) signaling pathway (AID 1259385); note: % is set by controls: 0 for no effect and ±100 for the full control effect; nearly all actives have a fitted effect of over 20% in size
# EXPERIMENTAL_CONTEXT: TSHR-HEK293 cAMP HTRF, TSH-stimulated antagonist mode; series mostly up to 92.4 µM
Results filed as inconclusive are left out. Activity calls are given as the source filed them. Calls come from the whole dose curve.
MEASUREMENT_LABEL: activity change, negative = inhibition

Study these solved cases before continuing.
# MOLECULE, RECORDED_MEASUREMENT
rows = [
    ("CNS(=O)(=O)CCc1ccc2[nH]cc(C3CCN(C)CC3)c2c1", "inactive"),
    ("O=C(O)Cc1ccc(Cl)cc1Cl", "inactive"),
    ("Cc1ccc(S(=O)(=O)O)c(C)c1", "inactive"),
    ("CCCC(=O)C(C)=O", "inactive"),
    ("COc1ccc(OC)c(Cl)c1", "inactive"),
    ("O=C(Nc1ccc(Cl)c(Cl)c1)C1CC1", "inactive"),
]

### Prompt Need activity change, negative = inhibition, item CC(CN)CC(C)(C)CCN (stereo not drawn)
### Response inactive

### Prompt Need activity change, negative = inhibition, item `COc1ccc2nc(SCc3ncc(C)c(OC)c3C)[nH]c2c1`
### Response inactive

### Prompt Need activity change, negative = inhibition, item `Cc1cccc(C)c1NC(=O)c1ccccc1C(=O)O`
### Response inactive

### Prompt Need activity change, negative = inhibition, item `COCCOCCOCCOCCO`
### Response inactive

### Prompt Need activity change, negative = inhibition, item CCCCCCCCC1CCC(=O)O1 (stereo not drawn)
### Response inactive

* * *

# TGT: Cytochrome P450 2D6 (Homo sapiens)
# METHOD_DESCRIPTION: Cytochrome P450 Family 2 Subfamily D Member 6 (CYP2D6) small molecule antagonists: luciferase reporter qHTS assay (AID 1671196); note: nearly all actives have a fitted effect of over 50% in size
# EXPERIMENTAL_CONTEXT: P450-Glo CYP2D6 enzyme assay, luciferin luminescence, 1 h; series mostly up to 115 µM
Records with an inconclusive call do not appear. The source made the active and inactive calls. Calls follow the shape of the dose curve; as a rule, active = well fitted inhibition curve with a large enough effect in the repeat runs; inconclusive = weak or mixed curves; inactive = no such curve, though single readings can be large or run the other way.
Assign a class; possible classes are active, inactive

Example cases with answers are listed next.
# MOLECULE, CLASS
data = [
    ("Cc1cc(C(C)(C)C)c(O)c(C)c1CC1=NCCN1", "active"),
    ("O=C1O[C@@H]2[C@@H](O)[C@H](O)O[C@@H]2[C@H]1O", "inactive"),
    ("Nc1ccc(S(=O)(=O)Nc2ccc(Cl)nn2)cc1", "inactive"),
]

### Prompt For `CC(=O)Nc1cccc(C)c1` , which call appears in the assay record?
### Response inactive

### Prompt For `CCCCCCCCCCl` , which call appears in the assay record?
### Response active

* * *

# METHOD_DESCRIPTION: qHTS assay to identify small molecule agonists of the progesterone receptor (PR) signaling pathway - cell viability counter screen (AID 1346799); note: % is set by controls: 0 for no effect and ±100 for the full control effect; nearly all actives have a fitted effect of over 45% in size
# EXPERIMENTAL_CONTEXT: PR-UAS-bla HEK293T viability, CellTiter-Glo luminescence, 16 h; series mostly up to 92.4 µM
Inconclusive results are not listed. Activity calls are given as the source filed them. The call rests on the fitted dose curve.
MEASUREMENT_LABEL: activity change, negative = cytotoxicity

# COMPOUND, activity change, negative = cytotoxicity
data = [
    ("O=C(O)C(=O)Cc1ccccc1", "inactive"),
    ("CN=C(NC#N)Nc1ccc(C2=NNC(=O)CC2C)cc1 (centres undefined)", "inactive"),
    ("O=C1CCCC(=O)O1", "inactive"),
    ("Oc1cn2c(n1)Nc1ccc(Cl)c(Cl)c1C2", "10.9% [at 19 µM] (inactive)"),
    ("CCCCCCCCC(=O)Cl", "inactive"),
    ("CCCC(=O)C(C)=O", "inactive"),
]

### Prompt Need activity change, negative = cytotoxicity, item `CCC(CC)CO`
### Response inactive

### Prompt Need activity change, negative = cytotoxicity, item `O=C(/N=N/C(=O)OCc1ccccc1)OCc1ccccc1`
### Response inactive

### Prompt Need activity change, negative = cytotoxicity, item `Nc1cccc(O)c1`
### Response inactive

Taken from PubChem BioAssay (Tox21).
